test system: NCI-H2369 (Mesothelioma); test: Bliss excess, mean over the matrix (fraction); higher = more synergy;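 note: after 72 h of two-drug dosing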
Each record here notes measured Bliss excess.
Enter the number alone.

Some solved cases for reference:
Compound	Reading
COc1nnc2ccc(N3CCC(c4ccc(OCCN5CCN(C)C(=O)[C@H]5C)cc4)CC3)nn12 [AZD5153] + Cc1c2c(nn1C)CSCc1cc(n(C)n1)CSc1cc(c3ccccc3c1)OCCCc1c(C(=O)O)n(C)c3c-2c(Cl)ccc13 [AZD5991] (first compound max 1 µM, 7x7, partner max 1 µM)	-0.0499
CC1(C)CCC(CN2CCN(c3ccc(C(=O)NS(=O)(=O)c4ccc(NCC5CCOCC5)c([N+](=O)[O-])c4)c(Oc4cnc5[nH]ccc5c4)c3)CC2)=C(c2ccc(Cl)cc2)C1 [Venetoclax] + C[C@@H](Nc1cc(F)cc(F)c1)c1cc(C(=O)N(C)C)cc2c(=O)cc(N3CCOCC3)oc12 [AZD8186] (first compound max 1 µM, 7x7, partner max 3 µM)	-0.0299
Cn1cnc2c(F)c(Nc3ccc(Br)cc3Cl)c(C(=O)NOCCO)cc21 [Selumetinib] + C=CCn1c(=O)c2cnc(Nc3ccc(N4CCN(C)CC4)cc3)nc2n1-c1cccc(C(C)(C)O)n1 [AZD1775] (first compound max 10 µM, partner max 1 µM)	-0.0624
CS(=O)(=O)CCNCc1ccc(-c2ccc3ncnc(Nc4ccc(OCc5cccc(F)c5)c(Cl)c4)c3c2)o1 [Lapatinib] + C[C@@H](Oc1cc(-c2cnn(C3CCNCC3)c2)cnc1N)c1c(Cl)ccc(F)c1Cl [Crizotinib] (first compound max 10 µM, 7x7, partner max 10 µM)	-0.0253
COc1cccc(OCCCN)c1-c1cc(Nc2cnc(C#N)cn2)n[nH]1 [Prexasertib] + CN(C)CCCOc1ccc(-c2ccc3ncc4c(c3c2)n(C2CCOCC2)c(=O)n4C)cn1 [AZD0156] (first compound max 1 µM, 7x7, partner max 1 µM)	-0.0016
COc1nnc2ccc(N3CCC(c4ccc(OCCN5CCN(C)C(=O)[C@H]5C)cc4)CC3)nn12 [AZD5153] + C[C@@H]1COCCN1C2=NC(=NC(=C2)C3(CC3)[S@](=N)(=O)C)C4=C5C=CNC5=NC=C4 [AZD6738] (first compound max 1 µM, 7x7, partner max 10 µM)	0.0409

Form field: Bliss excess recorded for Cc1cc2ncnn2cc1Nc1ncc2c(n1)n(C1CCOCC1)c(=O)n2C [AZD7648] + O=C(c1cc(Cc2n[nH]c(=O)c3ccccc23)ccc1F)N1CCN(C(=O)C2CC2)CC1 [Olaparib] (first compound max 10 µM, 7x7, partner max 10 µM) with NCI-H2369 (Mesothelioma) (enter value)
-0.05

Form field: Bliss excess recorded for NC1(C(=O)N[C@@H](CCO)c2ccc(Cl)cc2)CCN(c2ncnc3[nH]ccc23)CC1 [Capivasertib] + C[C@@H]1COCCN1C2=NC(=NC(=C2)C3(CC3)[S@](=N)(=O)C)C4=C5C=CNC5=NC=C4 [AZD6738] (first compound max 10 µM, 7x7, partner max 10 µM) with NCI-H2369 (Mesothelioma) (enter value)
-0.0127

Form field: Bliss excess recorded for CC1(C)CCC(CN2CCN(c3ccc(C(=O)NS(=O)(=O)c4ccc(NCC5CCOCC5)c([N+](=O)[O-])c4)c(Oc4cnc5[nH]ccc5c4)c3)CC2)=C(c2ccc(Cl)cc2)C1 [Venetoclax] + Cn1cnc2c(F)c(Nc3ccc(Br)cc3Cl)c(C(=O)NOCCO)cc21 [Selumetinib] (first compound max 1 µM, 7x7, partner max 3 µM) with NCI-H2369 (Mesothelioma) (enter value)
-0.0308

Form field: Bliss excess recorded for COc1nnc2ccc(N3CCC(c4ccc(OCCN5CCN(C)C(=O)[C@H]5C)cc4)CC3)nn12 [AZD5153] + CC1(C)CCC(CN2CCN(c3ccc(C(=O)NS(=O)(=O)c4ccc(NCC5CCOCC5)c([N+](=O)[O-])c4)c(Oc4cnc5[nH]ccc5c4)c3)CC2)=C(c2ccc(Cl)cc2)C1 [Venetoclax] (first compound max 1 µM, 7x7, partner max 1 µM) with NCI-H2369 (Mesothelioma) (enter value)
-0.0641

Form field: Bliss excess recorded for Cc1c2c(nn1C)CSCc1cc(n(C)n1)CSc1cc(c3ccccc3c1)OCCCc1c(C(=O)O)n(C)c3c-2c(Cl)ccc13 [AZD5991] + CC1(C)CCC(CN2CCN(c3ccc(C(=O)NS(=O)(=O)c4ccc(NCC5CCOCC5)c([N+](=O)[O-])c4)c(Oc4cnc5[nH]ccc5c4)c3)CC2)=C(c2ccc(Cl)cc2)C1 [Venetoclax] (first compound max 1 µM, 7x7, partner max 1 µM) with NCI-H2369 (Mesothelioma) (enter value)
-0.0027

Form field: Bliss excess recorded for COc1cccc(OCCCN)c1-c1cc(Nc2cnc(C#N)cn2)n[nH]1 [Prexasertib] + C=CCn1c(=O)c2cnc(Nc3ccc(N4CCN(C)CC4)cc3)nc2n1-c1cccc(C(C)(C)O)n1 [AZD1775] (first compound max 1 µM, partner max 1 µM) with NCI-H2369 (Mesothelioma) (enter value)
-0.0074

Form field: Bliss excess recorded for CN(C)CCCOc1ccc(-c2ccc3ncc4c(c3c2)n(C2CCOCC2)c(=O)n4C)cn1 [AZD0156] + CCN(CCO)CCCOc1ccc2c(Nc3cc(CC(=O)Nc4cccc(F)c4)[nH]n3)ncnc2c1 [AZD2811] (first compound max 1 µM, 7x7, partner max 1 µM) with NCI-H2369 (Mesothelioma) (enter value)
-0.0392

Form field: Bliss excess recorded for Cc1c2c(nn1C)CSCc1cc(n(C)n1)CSc1cc(c3ccccc3c1)OCCCc1c(C(=O)O)n(C)c3c-2c(Cl)ccc13 [AZD5991] + CCN(CCO)CCCOc1ccc2c(Nc3cc(CC(=O)Nc4cccc(F)c4)[nH]n3)ncnc2c1 [AZD2811] (first compound max 1 µM, 7x7, partner max 1 µM) with NCI-H2369 (Mesothelioma) (enter value)
-0.0156

----------
tested on: MDA-MB-231 (Breast Carcinoma); assay: combination Emax (second highest fraction inhibited in the dose matrix, 72 h); higher = more inhibition; extreme values may be limits of the assay
Measure Name: combination Emax
Enter the number alone.

Some solved cases for reference:
Compound	combination Emax
Cc1cc2ncnn2cc1Nc1ncc2c(n1)n(C1CCOCC1)c(=O)n2C [AZD7648] + C[C@@H]1COCCN1C2=NC(=NC(=C2)C3(CC3)[S@](=N)(=O)C)C4=C5C=CNC5=NC=C4 [AZD6738] (first compound max 10 µM, 7x7, partner max 10 µM)	0.605
C[C@@H](Nc1cc(F)cc(F)c1)c1cc(C(=O)N(C)C)cc2c(=O)cc(N3CCOCC3)oc12 [AZD8186] + C1CN(CCC1(C(=O)N[C@@H](CCO)C2=CC=C(C=C2)Cl)N)C3=NC=NC4=C3C=CN4 [AZD5363] (first compound max 10 µM, 7x7, partner max 10 µM)	0.281
Cc1c2c(nn1C)CSCc1cc(n(C)n1)CSc1cc(c3ccccc3c1)OCCCc1c(C(=O)O)n(C)c3c-2c(Cl)ccc13 [AZD5991] + Cn1cnc2c(F)c(Nc3ccc(Br)cc3Cl)c(C(=O)NOCCO)cc21 [Selumetinib] (first compound max 1 µM, 7x7, partner max 3 µM)	0.4

Now examine the next entry.
Look up combination Emax for this compound: COc1cccc(OCCCN)c1-c1cc(Nc2cnc(C#N)cn2)n[nH]1 [Prexasertib] + C[C@@H]1COCCN1C2=NC(=NC(=C2)C3(CC3)[S@](=N)(=O)C)C4=C5C=CNC5=NC=C4 [AZD6738] (first compound max 1 µM, 7x7, partner max 10 µM)
0.705

----------
test system: SK-N-FI (Neuroblastoma); assay: combination Emax (second highest fraction inhibited in the dose matrix, 72 h); higher = more inhibition; extreme values may be limits of the assay
Measure Name: combination Emax
Enter the number alone.

Some solved cases for reference:
Compound	Measure Name	Reading
CN(C)CCCOc1ccc(-c2ccc3ncc4c(c3c2)n(C2CCOCC2)c(=O)n4C)cn1 [AZD0156] + O=C(c1cc(Cc2n[nH]c(=O)c3ccccc23)ccc1F)N1CCN(C(=O)C2CC2)CC1 [Olaparib] (first compound max 3 µM, partner max 3 µM)	combination Emax	0.148
COc1cccc(OCCCN)c1-c1cc(Nc2cnc(C#N)cn2)n[nH]1 [Prexasertib] + O=C(c1cc(Cc2n[nH]c(=O)c3ccccc23)ccc1F)N1CCN(C(=O)C2CC2)CC1 [Olaparib] (first compound max 1 µM, 7x7, partner max 10 µM)	combination Emax	0.889
CC1(C)CCC(CN2CCN(c3ccc(C(=O)NS(=O)(=O)c4ccc(NCC5CCOCC5)c([N+](=O)[O-])c4)c(Oc4cnc5[nH]ccc5c4)c3)CC2)=C(c2ccc(Cl)cc2)C1 [Venetoclax] + C[C@@H]1COCCN1C2=NC(=NC(=C2)C3(CC3)[S@](=N)(=O)C)C4=C5C=CNC5=NC=C4 [AZD6738] (first compound max 1 µM, 7x7, partner max 10 µM)	combination Emax	0.766

Now examine the next entry.
Form field: combination Emax recorded for C=CCn1c(=O)c2cnc(Nc3ccc(N4CCN(C)CC4)cc3)nc2n1-c1cccc(C(C)(C)O)n1 [AZD1775] + CCc1c2c(nc3ccc(O)cc13)-c1cc3c(c(=O)n1C2)COC(=O)[C@]3(O)CC [SN-38] (first compound max 1 µM, partner max 0.3 µM) with SK-N-FI (Neuroblastoma) (enter value)
0.586
